test: Sirius T3 automated potentiometric titrations with n-octanol, log P / log D; details: n-octanol/water, pH 7
Assay readout: logD
Answer with the value's number alone.

### Prompt // logD lookup, key: `CN(C)CCCN1c2ccccc2Sc2ccccc21`
### Response 2.17

* * *

test: Sirius T3 automated potentiometric titrations with n-octanol, log P / log D; conditions: n-octanol/water, pH 2
Assay readout: logD
Answer with the value's number alone.

### Prompt // logD lookup, key: `CN(C)CCCN1c2ccccc2Sc2ccccc21`
### Response 0.83

* * *

assay: open-tubular capillary electrochromatography (CEC), permeability k′ parameter; format: in vitro ADME; conditions: pH 7.4 HEPES buffer 40 mM, migration times in coated and uncoated capillary, mean ± SD of three independent experiments
Assay readout: k′ ± SD (CEC)
Answer with the value's number alone.

Recorded results for 5 molecules are shown here.
Molecule: CC(C)(C)NCC(O)c1ccc(O)c(CO)c1 (stereo not drawn)
k′ ± SD (CEC): −0.0103

Molecule: O=c1n(CCCN2CCN(c3cccc(Cl)c3)CC2)nc2ccccn12
k′ ± SD (CEC): −0.0108

Molecule: O=C(O)c1ccccc1O
k′ ± SD (CEC): 0.02255

Molecule: CCN(CC)CCNC(=O)c1cc(Cl)c(N)cc1OC [metoclopramide]
k′ ± SD (CEC): −0.00563

Molecule: CN(C)CCCC1(c2ccc(F)cc2)OCc2cc(C#N)ccc21 (stereo not drawn)
k′ ± SD (CEC): 0.00405

### Prompt // k′ ± SD (CEC) lookup, key: `CCCN(CCC)CCc1cccc2c1CC(=O)N2`
### Response −0.01252
